Each entry below carries its recorded IC50.
- System: LTB4-mediated CD11b upregulation on human neutrophils
- test method notes: LTB4-mediated CD11b upregulation on human neutrophils (flow cytometry, anti-CD11b-FITC)
- Format: cell-based
- cond: read-out: CD11b/CD18 IC50; isolated human neutrophils, 3 nM LTB4; semicolons separate individual assay determinations; sodium salt
Structures can show the parent of a compound that is named as a salt.

[
  {
    "compound": "CCCc1c(OCCCOc2cc(O)c(-c3cccs3)cc2CC)cccc1Oc1ccccc1C(=O)O [Example 9, sodium salt]",
    "measure unit": "nM",
    "IC50": 20
  },
  {
    "compound": "CCCc1c(OCCCOc2cc(O)c(-c3c(C)noc3C)cc2CC)cccc1Oc1ccccc1C(=O)O [Example 12, sodium salt]",
    "measure unit": "nM",
    "IC50": 5700
  },
  {
    "compound": "CCCc1c(OCCCOc2cc(O)c(-c3ccco3)cc2CC)cccc1Oc1ccccc1C(=O)O [Example 13, sodium salt]",
    "measure unit": "nM",
    "IC50": 54
  }
]
